B1: CPEB3 Ribozyme (parent)
chain: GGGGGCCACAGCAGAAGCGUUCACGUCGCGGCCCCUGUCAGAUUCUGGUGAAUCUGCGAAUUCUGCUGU

Variants of: B1
assayRemarks: self-cleavage, relative activity (ratio to wild type); higher = more cleavage; co-transcriptional
I'd appreciate it if you could label each record using self-cleavage and these ranges: small value (below 0.2), mid value (0.2 to below 0.7), large value (0.7 or more)

- variantSpec: "G4U A52C"
  className: "mid value"
- variantSpec: "U20A C32G"
  className: "small value"
- variantSpec: "G5U G30U"
  className: "small value"
- variantSpec: "A8C U53A"
  className: "large value"
- variantSpec: "U55C C63U"
  className: "large value"
- variantSpec: "G50C A52G"
  className: "large value"
- variantSpec: "G3U U69C"
  className: "mid value"
- variantSpec: "G48A A51U"
  className: "large value"
- variantSpec: "U20C C45G"
  className: "mid value"
- variantSpec: "G1U U61G"
  className: "mid value"
- variantSpec: "C29U C39A"
  className: "small value"
- variantSpec: "C29G A52U"
  className: "mid value"
- variantSpec: "A15G U53G"
  className: "large value"
- variantSpec: "A15C C27U"
  className: "small value"
- variantSpec: "A8G C27U"
  className: "small value"
- variantSpec: "U36G A59C"
  className: "small value"
- variantSpec: "G2A G50C"
  className: "small value"
- variantSpec: "A40G G50C"
  className: "large value"
- variantSpec: "C12G G68U"
  className: "large value"
- variantSpec: "A15U G50C"
  className: "large value"
- variantSpec: "U36C G41U"
  className: "mid value"
- variantSpec: "C7U G19C"
  className: "small value"
- variantSpec: "G19U U44A"
  className: "mid value"
- variantSpec: "G4U U46C"
  className: "large value"
- variantSpec: "U46G U55A"
  className: "large value"
- variantSpec: "G17U C24A"
  className: "small value"
- variantSpec: "G2U C54U"
  className: "small value"
- variantSpec: "A23C A59G"
  className: "large value"
- variantSpec: "G1C C34G"
  className: "small value"
- variantSpec: "G1U U49G"
  className: "small value"
- variantSpec: "U49G G56A"
  className: "large value"
- variantSpec: "G5C C6G"
  className: "small value"
- variantSpec: "A15C U44C"
  className: "mid value"
- variantSpec: "U21A C54U"
  className: "mid value"
- variantSpec: "G2C C18U"
  className: "small value"
- variantSpec: "G31C U53A"
  className: "mid value"
- variantSpec: "G65C U67G"
  className: "large value"
- variantSpec: "A15C U61C"
  className: "mid value"
- variantSpec: "U21G A40G"
  className: "mid value"
- variantSpec: "C39U G58C"
  className: "large value"
- variantSpec: "C18G U26G"
  className: "mid value"
- variantSpec: "A51C A59G"
  className: "large value"
- variantSpec: "G5U U69G"
  className: "mid value"
- variantSpec: "C45A G68A"
  className: "large value"
- variantSpec: "A13C G50U"
  className: "large value"
- variantSpec: "C33G C35A"
  className: "mid value"
- variantSpec: "C35A C66G"
  className: "mid value"
- variantSpec: "C22G G48U"
  className: "small value"
- variantSpec: "U21C U26C"
  className: "large value"
- variantSpec: "C35G U62A"
  className: "mid value"
- variantSpec: "G14U A23G"
  className: "mid value"
- variantSpec: "C39G C45G"
  className: "large value"
- variantSpec: "A13G U69G"
  className: "large value"
- variantSpec: "G2U G50U"
  className: "small value"
- variantSpec: "U64G G65A"
  className: "mid value"
- variantSpec: "C6U U55A"
  className: "large value"
- variantSpec: "G30U C54A"
  className: "mid value"
- variantSpec: "G17C G37A"
  className: "small value"
- variantSpec: "A10U C45U"
  className: "large value"
- variantSpec: "C12U G19A"
  className: "small value"
- variantSpec: "U36A G48U"
  className: "mid value"
- variantSpec: "C18G G48C"
  className: "small value"
- variantSpec: "C54G U61C"
  className: "mid value"
- variantSpec: "G1U G68A"
  className: "small value"
- variantSpec: "G25U G48C"
  className: "mid value"
- variantSpec: "U44C C54U"
  className: "large value"
- variantSpec: "U61C G65U"
  className: "mid value"
- variantSpec: "G5C A51G"
  className: "mid value"
- variantSpec: "C22U C35A"
  className: "small value"
- variantSpec: "G2C G37A"
  className: "small value"
- variantSpec: "G2A G41A"
  className: "small value"
- variantSpec: "C6A U26G"
  className: "mid value"
- variantSpec: "U43G U64C"
  className: "mid value"
- variantSpec: "C6G A60G"
  className: "small value"
- variantSpec: "G3C G11U"
  className: "small value"
- variantSpec: "G41C U64A"
  className: "mid value"
